Could you please report measured inhibition at 20 ppm for the items listed next?
System: Pythium ultimum
Test: Pythium ultimum / liquid culture (seedling damping off)
Assay type: cell-based
Details: Globisporangium ultimum, potato dextrose broth, 24° C., 2-3 days after application, read-out: control of Pythium ultimum (inhibition of growth, photometric)

Compound	Tested Target	inhibition at 20 ppm
CCCc1cncc2nc(-n3ncnc3N)n(CCC)c12 [Compound 190]	Pythium ultimum	≥ 80%

Give me inhibition at 20 ppm for each of these compounds, listed below.
1. CCn1c(-n2ncnc2N)nc2cncc(-c3ccccc3C#N)c21 [Compound 85]
2. CCn1c(-n2ncnc2N)nc2cncc(-c3ccc(OC)nc3)c21 [Compound 59]

## Output
1. ≥ 80%
2. ≥ 80%

----------
Could you please report measured melting point for the items listed next?

Solved cases (3 shown):
CCn1c(-n2ncnc2N)nc2cncc(C(C)=NOC(C)(C)C)c21 171 to 175 °C
CCCn1c(-n2ncnc2N)nc2cnccc21 210 to 212 °C
CCn1c(-n2ncnc2N)nc2cncc(C(C)=NOCc3ccc(F)cc3)c21 175 to 187 °C

Give me melting point for each of these compounds, listed below.
1. CCn1c(-n2ncnc2N)nc2cncc(C(C)=NO)c21
2. CCn1c(-n2ncnc2N)nc2cncc(-c3ccc(C)cc3)c21

## Output
["228 to 240 °C", "234 to 236 °C"]

----------
Could you please report measured melting point for the items listed next?

CCn1c(-n2ncnc2N)nc2cncc(Br)c21 231 to 232 °C
CCc1cncc2nc(-n3ncnc3N)n(CC)c12 176 to 179 °C

Read the next record carefully.
## Input May I ask what melting point has been recorded for CCn1c(-n2ncnc2N)nc2cncc(C(=O)C=Cc3ccc(F)cc3)c21 ?
## Output 205 to 209 °C
